Each item that follows carries a reported AUC.
assay: In Vivo Pharmacokinetics, rat oral dosing; parameters: species or system Sprague Dawley rats; settings: male, Sprague Dawley, oral gavage 3.0 mg/kg, plasma, cassette dosing

[2H]C([2H])([2H])n1cc(-c2[nH]c3ncc4c(c3c2-c2ccc(OC)cc2)n([C@H]2CC[C@@](C)(NC(=O)C3CC3)CC2)c(=O)n4C)c(F)n1
> 1.5 µM·h

Param item = [2H]C([2H])([2H])n1cc(-c2[nH]c3ncc4c(c3c2-c2ccc(OC)cc2)n([C@H]2CC[C@@](C)(NC(=O)[C@H]3C[C@H]3F)CC2)c(=O)n4C([2H])([2H])[2H])c(F)n1 ; retrieve measured AUC. > 1.5 µM·h

And what about the compound [2H]C([2H])([2H])n1ncc2cc(-c3c(-c4cn(CC)nc4F)[nH]c4ncc5c(c34)n([C@H]3CC[C@@](C)(NC(=O)C4CC4)CC3)c(=O)n5C)ccc21 ? > 1.5 µM·h

* * *

Each item that follows carries a reported pIC50.
Target: FLT3 (Homo sapiens, UniProt P36888)
Sequence (P36888 27-993): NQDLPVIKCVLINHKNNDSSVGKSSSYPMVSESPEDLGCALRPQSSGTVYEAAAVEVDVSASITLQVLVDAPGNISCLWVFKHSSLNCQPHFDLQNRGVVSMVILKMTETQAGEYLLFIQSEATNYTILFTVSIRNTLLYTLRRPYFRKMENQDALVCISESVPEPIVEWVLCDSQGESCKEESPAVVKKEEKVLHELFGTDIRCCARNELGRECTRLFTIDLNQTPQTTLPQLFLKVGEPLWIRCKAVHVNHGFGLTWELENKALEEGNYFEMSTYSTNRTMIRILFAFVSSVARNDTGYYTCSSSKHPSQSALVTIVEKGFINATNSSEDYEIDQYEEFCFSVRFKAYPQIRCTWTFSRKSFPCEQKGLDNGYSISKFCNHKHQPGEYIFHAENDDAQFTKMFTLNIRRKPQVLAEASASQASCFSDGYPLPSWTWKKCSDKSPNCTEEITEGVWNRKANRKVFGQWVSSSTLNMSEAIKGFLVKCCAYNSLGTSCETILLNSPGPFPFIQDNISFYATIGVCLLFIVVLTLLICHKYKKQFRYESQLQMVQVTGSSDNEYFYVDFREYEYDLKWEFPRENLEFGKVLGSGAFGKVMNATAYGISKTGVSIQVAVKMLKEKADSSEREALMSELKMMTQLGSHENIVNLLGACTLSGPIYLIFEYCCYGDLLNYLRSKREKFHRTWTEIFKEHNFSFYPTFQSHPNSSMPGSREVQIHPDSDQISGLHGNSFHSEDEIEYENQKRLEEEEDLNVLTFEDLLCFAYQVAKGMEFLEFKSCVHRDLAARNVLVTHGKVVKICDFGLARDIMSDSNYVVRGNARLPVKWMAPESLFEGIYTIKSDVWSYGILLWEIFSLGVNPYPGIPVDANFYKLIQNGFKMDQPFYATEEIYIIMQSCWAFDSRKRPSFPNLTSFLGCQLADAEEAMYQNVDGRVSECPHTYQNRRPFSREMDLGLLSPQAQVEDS
Assay: FLT3 Enzymatic Assay
Format: biochemical
Details: HTRF kinase assay, 1 mM ATP
Experimental: The kinase assays were carried out at room temperature in assay buffer (HEPES 50 mM, pH 7.0, NaN3 0.02%, BSA 0.01%, Orthovanadate 0.1 mM, DTT 1 mM, MgCl2 10 mM) in a final volume of 10 μL. […] After 60 minutes incubation at room temperature, the product activity was determined by measuring the fluorescence at 620 nm and 665 nm on Pherastar microplate reader (BMG Labtech). A ratio is calculated (665/620 nm) for each well. […]
pIC50: −log10 of the molar value.

See these solved cases before continuing.
COc1nn(C)cc1-c1[nH]c2ncc3c(c2c1-c1ccc2c(cnn2C)c1)n(C1CCOCC1)c(=O)n3C [Comparative Example A, reference compound]
5.90 to 6.60
[2H]C([2H])([2H])n1ncc2cc(-c3c(-c4cn(C)nc4OC)[nH]c4ncc5c(c34)n(C3CCOCC3)c(=O)n5C)ccc21 [Comparative Example B, reference compound]
5.90 to 6.60
[2H]C([2H])([2H])n1cc(-c2[nH]c3ncc4c(c3c2-c2ccc(OC)cc2)n([C@H]2CC[C@@](C)(NC(=O)[C@H]3C[C@H]3F)CC2)c(=O)n4C([2H])([2H])[2H])c(F)n1
6.60 to 7.60
[2H]C([2H])([2H])n1cc(-c2[nH]c3ncc4c(c3c2-c2ccc3c(cnn3C([2H])([2H])[2H])c2)n([C@H]2CC[C@@](C)(NC(=O)C3CC3)CC2)c(=O)n4C)c(F)n1
5.90 to 6.60

Now for a further compound.
Quick check: pIC50 on FLT3 (Homo sapiens, UniProt P36888), item COc1ccc(-c2c(-c3cn(C)nc3OC)[nH]c3ncc4c(c23)n([C@H]2CC[C@@](C)(NC(=O)C3CC3)CC2)c(=O)n4C)cc1 ? < 5.60

* * *

tested on: pSTAT5 signaling in SET-2 cells in whole blood; assay: pSTAT5 SET-2 Whole Blood MSD Assay; type: cell-based; conditions: Homo sapiens, SET-2 cells with whole blood, 2 hour incubation, read-out: SET2 WB IC50
pIC50: −log10 of the molar value.
MEASURED ATTRIBUTE: pIC50

[2H]C([2H])([2H])n1cc(-c2[nH]c3ncc4c(c3c2-c2ccc(OC)cc2)n([C@H]2CC[C@@](C)(NC(=O)[C@H]3C[C@H]3F)CC2)c(=O)n4C([2H])([2H])[2H])c(F)n1
≥ 5.60

Param item = COc1ccc(-c2c(-c3cn(C)nc3OC)[nH]c3ncc4c(c23)n([C@H]2CC[C@@](C)(NC(=O)C3CC3)CC2)c(=O)n4C)cc1 ; retrieve measured pIC50. 5.30 to 5.60

And what about the compound [2H]C([2H])([2H])n1cc(-c2[nH]c3ncc4c(c3c2-c2ccc3c(cnn3C([2H])([2H])[2H])c2)n([C@H]2CC[C@@](C)(NC(=O)C3CC3)CC2)c(=O)n4C)c(F)n1 ? ≥ 5.60

And what about the compound [2H]C([2H])([2H])n1cc(-c2[nH]c3ncc4c(c3c2-c2ccc(OC)cc2)n([C@H]2CC[C@@](C)(NC(=O)C3CC3)CC2)c(=O)n4C)c(F)n1 ? 5.30 to 5.60

And what about the compound [2H]C([2H])([2H])n1ncc2cc(-c3c(-c4cn(C)nc4OC)[nH]c4ncc5c(c34)n([C@H]3CC[C@@](C)(NC(=O)C4CC4)CC3)c(=O)n5C)ccc21 ? ≥ 5.60

And what about the compound [2H]C([2H])([2H])n1ncc2cc(-c3c(-c4cn(CC)nc4F)[nH]c4ncc5c(c34)n([C@H]3CC[C@@](C)(NC(=O)C4CC4)CC3)c(=O)n5C)ccc21 ? ≥ 5.60

* * *

biological target: pseudo-kinase domain (JH2) of human V617F mutant JAK2 (Homo sapiens, UniProt O60674, F794H/V617F/W659A/W777A); construct: pseudo-kinase domain (JH2, amino-acids 536-812 with 3 surface mutations W659A, W777A, F794H); His (C); assay: JAK2 LanthaScreen JH2-V617F Binding Assay; details: 50 nM JAK2-JH2 tracer, 1 hour at 25° C., read-out: JH2 V617F Bind IC50
Sequence (O60674 536-812 V617F/W659A/W777A/F794H): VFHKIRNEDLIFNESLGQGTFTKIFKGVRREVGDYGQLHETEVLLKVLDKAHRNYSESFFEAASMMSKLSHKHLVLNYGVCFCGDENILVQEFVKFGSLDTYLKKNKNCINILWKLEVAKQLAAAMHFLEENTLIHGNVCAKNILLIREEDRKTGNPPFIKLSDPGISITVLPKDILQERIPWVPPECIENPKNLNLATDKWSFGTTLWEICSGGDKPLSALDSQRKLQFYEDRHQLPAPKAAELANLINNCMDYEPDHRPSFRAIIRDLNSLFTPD
pIC50: −log10 of the molar value.
MEASURED ATTRIBUTE: pIC50

[2H]C([2H])([2H])n1cc(-c2[nH]c3ncc4c(c3c2-c2ccc3c(cnn3C([2H])([2H])[2H])c2)n([C@H]2CC[C@@](C)(NC(=O)C3CC3)CC2)c(=O)n4C)c(F)n1
≥ 8.00

Param item = [2H]C([2H])([2H])n1ncc2cc(-c3c(-c4cn(CC)nc4F)[nH]c4ncc5c(c34)n([C@H]3CC[C@@](C)(NC(=O)C4CC4)CC3)c(=O)n5C)ccc21 ; retrieve measured pIC50. ≥ 8.00

And what about the molecule COc1ccc(-c2c(-c3cn(C)nc3OC)[nH]c3ncc4c(c23)n([C@H]2CC[C@@](C)(NC(=O)C3CC3)CC2)c(=O)n4C)cc1 ? ≥ 8.00

* * *

experiment: In Vivo Pharmacokinetics, rat oral dosing; set-up: species or system Sprague Dawley rats; details: male, Sprague Dawley, oral gavage 3.0 mg/kg, plasma, cassette dosing
MEASURED ATTRIBUTE: AUC

See these solved cases before continuing.
COc1ccc(-c2c(-c3cn(C)nc3OC)[nH]c3ncc4c(c23)n([C@H]2CC[C@@](C)(NC(=O)C3CC3)CC2)c(=O)n4C)cc1
> 1.5 µM·h
[2H]C([2H])([2H])n1cc(-c2[nH]c3ncc4c(c3c2-c2ccc3c(cnn3C([2H])([2H])[2H])c2)n([C@H]2CC[C@@](C)(NC(=O)C3CC3)CC2)c(=O)n4C)c(F)n1
≤ 0.5 µM·h

Now for a further molecule.
Param item = [2H]C([2H])([2H])n1ncc2cc(-c3c(-c4cn(C)nc4OC)[nH]c4ncc5c(c34)n([C@H]3CC[C@@](C)(NC(=O)C4CC4)CC3)c(=O)n5C)ccc21 ; retrieve measured AUC. 0.5 to 1.5 µM·h
